Entries annotated with measured TGI
# Tested on: IGROV1 ovarian
# test.summary: NCI tumour cell line growth inhibition, 48 h

{"columns": ["compound", "TGI"],
 "data": [
  ["C=C1CC2OC(=O)C(=C)C2C(O)C2C(=C)CCC12 (configuration not stated)", "35.5 µM"],
  ["Cc1ccc2c(=O)cc(-c3ccc(Cl)s3)[nH]c2n1", "> 100 µM"],
  ["COC(=O)c1cc(=O)[nH]c(=O)[nH]1", "> 100 µM"],
  ["COC(C(=O)NN)c1ccccc1 (configuration not stated)", "> 100 µM"],
  ["CC(=O)NCCC1CN(C(=O)/C=C/I)c2ccccc21 (configuration not stated)", "18.7 µM"],
  ["O=C1CCCCC1S(=O)(=O)c1ccccc1 (configuration not stated)", "> 100 µM"],
  ["CCOC(=O)/C(C1=NCCN1)=C(\\O)c1ccccc1", "> 100 µM"]
]}
